MEASURED PROPERTY: melting point (°C)

COMPOUND: N#Cc1cnn2cccc2c1NC1CCCCCC1 [Compound 52h]
melting point / °C: 108

[P] Cc1nc(C(CC(C)C)Nc2c(C#N)cnn3cccc23)sc1C (stereo not drawn) [Compound 49b]
[Q] NC(=O)c1cnn2cccc2c1Nc1ccccc1 [Compound 52f]
Task: Rank P against Q by their melting point values and give the higher one. Your choice should be expressed through its label.
Result: Q
(Q: 247.2 °C, P: 137.9 °C)

[A] N#Cc1cnn2cccc2c1NC1CCCC1 [Compound 52b]
[B] CC1CCCCC1Nc1c(C(=O)O)cnn2cccc12 (stereo not drawn) [Compound 18e]
Task: Compare A and B and name the one whose reported melting point is smaller. Give the chosen item's label as your response.
Result: A
(A: 102.9 °C, B: 195.1 °C)
